test system: Fibroblast; assay: Multiplex assay against human fibroblast; type: toxicity, cell-based; details: 48 h, 10 µM, compound concentration 10 uM, replicate 1
Output criterion met for records whose Population Mitochondria Different-Phenotype (%) is lower than 20%, criterion not met for records at or above 20%.

These solved cases illustrate the format of a correct answer.
INSERT INTO results (compound, assigned_category) VALUES
  ('O=C(O)c1cc2ccccc2c(Cc2c(O)c(C(=O)O)cc3ccccc23)c1O [PAMOIC ACID]', 'criterion met'),
  ('O=S(=O)(c1ccccc1)c1cnc2c(N3CCNCC3)cccc2c1 [INTEPIRDINE]', 'criterion met'),
  ('CNC[C@H](O)c1ccc(O)c(O)c1 [EPINEPHRINE]', 'criterion met'),
  ('COc1c(C)cc(NC(=O)c2nn(Cc3ccc(F)cc3)c3c2CN(C(=O)c2ccc[nH]2)C[C@]3(C)C(N)=O)cc1C', 'criterion not met'),
  ('COc1ccc2c(c1)C(C(=O)N(Cc1ccc(N(C)C)cc1)c1ccc(C(C)C)cc1)CCC2.Cl (stereo not drawn)', 'criterion met'),
  ('CCNC1(C(N)=O)CCN(c2ncnc3c2nc(-c2ccccc2Cl)n3-c2ccc(Cl)cc2)CC1 [OTENABANT]', 'criterion not met');

Given the entry COc1cc(NC(=O)CCN2CCC(OC(=O)Nc3ccccc3-c3ccccc3)CC2)c(Cl)cc1CNC[C@H](O)c1ccc(O)c2[nH]c(=O)ccc12 [BATEFENTEROL] , would its reported Population Mitochondria Different-Phenotype (%) be below 20%? criterion not met

Given the entry CN(C)CCCc1cc(C(=O)Nc2ccc(-c3ccncc3)cc2)ccc1O.Cl.Cl , would its reported Population Mitochondria Different-Phenotype (%) be below 20%? criterion met
